The origin of these recorded values is patent US4659710A.

Assay Procedure: Acute toxicity, rat
Condition Notes: in vivo, po
Assay Endpoint: LD50

Respond only with LD50 recorded for "CC(=O)Nc1cc2cccnc2c(N2CCN(CCO)CC2)n1"
> 3000 mg/kg

----------
As shown below, each of these compounds has a reported LD50 value.
Assay Procedure: Acute toxicity, mouse
Condition Notes: in vivo, po

Example results:
Respond only with LD50 recorded for "CC(=O)Nc1cc2cccnc2c(N2CCN(CCO)CC2)n1"
1600 mg/kg

Respond only with LD50 recorded for "Nc1cc2cccnc2c(N2CCN(CCO)CC2)n1"
> 1000 mg/kg

Respond only with LD50 recorded for "CC(=O)Nc1cc2cccnc2c(NCc2cccnc2)n1"
> 500 mg/kg

API: the following record is the query input.
Respond only with LD50 recorded for "CC(=O)Nc1cc2cccnc2c(N(C)C)n1"
> 500 mg/kg

----------
As shown below, each of these molecules has a reported Inotropy, % of Control value.
Tested on: spontaneously-beating atrial muscle
Assay Procedure: Cardiotonic effects: contractile force and heart rate of isolated spontaneously beating atria
Set-up: species or system Hartley male guinea pig
Condition Notes: 3 × 10^-6 g/ml, cumulative
Write the quantity with the unit trailing the number.

Example results:
Respond only with Inotropy, % of Control recorded for "CCOc1nc(NC(C)=O)cc2cccnc12"
13.3%

Respond only with Inotropy, % of Control recorded for "CC(=O)Nc1cc2cccnc2c(NCc2cccnc2)n1"
8.7%

Respond only with Inotropy, % of Control recorded for "CC(=O)Nc1cc2cccnc2c(NCCCO)n1"
9.6%

Respond only with Inotropy, % of Control recorded for "CNc1nc(NC(C)=O)cc2cccnc12"
8.6%

API: the following record is the query input.
Respond only with Inotropy, % of Control recorded for "CC(=O)Nc1cc2cccnc2c(N(C)C)n1"
4.5%

----------
Tested on: spontaneously-beating atrial muscle
Assay Procedure: Cardiotonic effects: contractile force and heart rate of isolated spontaneously beating atria
Set-up: species or system Hartley male guinea pig
Condition Notes: 10^-5 g/ml, cumulative
Assay Endpoint: Inotropy, % of Control (%)
Reply with just the number (in %).

Example results:
Respond only with Inotropy, % of Control recorded for CC(=O)Nc1cc2cccnc2c(N(C)C)n1 [Compound No. 16]
12.5

Respond only with Inotropy, % of Control recorded for CNc1nc(NC(C)=O)cc2cccnc12 [compound 5]
12.9

Respond only with Inotropy, % of Control recorded for CCOc1nc(NC(C)=O)cc2cccnc12 [compound 34]
24.9

Respond only with Inotropy, % of Control recorded for CC(=O)Nc1cc2cccnc2c(NCc2cccnc2)n1 [Compound No. 13]
24.6

API: the following record is the query input.
Respond only with Inotropy, % of Control recorded for CC(=O)Nc1cc2cccnc2c(NCCCO)n1 [Compound No. 8]
16.4

----------
Test system: spontaneously-beating atrial muscle
Assay Procedure: Cardiotonic effects: contractile force and heart rate of isolated spontaneously beating atria
Set-up: species or system Hartley male guinea pig
Condition Notes: 10^-6 g/ml, cumulative
Assay Endpoint: Inotropy, % of Control (%)
Reply with just the number (in %).

Example results:
Provide the reported Inotropy, % of Control (system: spontaneously-beating atrial muscle) for CNc1nc(NC(C)=O)cc2cccnc12 [compound 5]
4.7

Provide the reported Inotropy, % of Control (system: spontaneously-beating atrial muscle) for CC(=O)Nc1cc2cccnc2c(NCCCO)n1 [Compound No. 8]
4.1

Provide the reported Inotropy, % of Control (system: spontaneously-beating atrial muscle) for CC(=O)Nc1cc2cccnc2c(NCc2cccnc2)n1 [Compound No. 13]
2.6

Continuing:
Provide the reported Inotropy, % of Control (system: spontaneously-beating atrial muscle) for CCOc1nc(NC(C)=O)cc2cccnc12 [compound 34]
6.3
